# tgt: GST-tagged KRAS-G12V (2-169) (Homo sapiens, UniProt P01116, G12V)
# Sequence (P01116 2-169 isoform P01116-2 G12V): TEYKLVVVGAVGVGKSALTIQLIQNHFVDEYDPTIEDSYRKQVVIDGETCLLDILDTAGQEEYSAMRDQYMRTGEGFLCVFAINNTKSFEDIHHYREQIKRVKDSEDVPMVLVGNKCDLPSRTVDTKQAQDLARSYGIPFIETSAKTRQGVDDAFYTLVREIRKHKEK
# procedure summary: Nucleotide exchange assay (NEA), SOS-mediated, HTRF, KRAS G12V
# measurement setup: Table 4; IC50 extracted at 90 min; 80 nM SOS
# Source text: This activity is tightly regulated by GTPase activating proteins (GAPs) and guanine nucleotide exchange factors (GEFs). […] Homogenous time resolved fluorescence (HTRF) was used to detect SOS-mediated binding of a fluorescent GTP analog, GTP-DY-647P1 (Jena Biosciences NU-820-647P1) to GST-tagged KRAS-G12D (2-169) or to GST-tagged KRAS-G12V (2-169, Reaction Biology, MSC-11-540). […]
pIC50: −log10 of the molar value.
So I've got a bunch of molecules here, and I need their pIC50 values.

// pIC50 lookup, key: CC(c1cccnc1N)N(CCO)c1nc(OC[C@@]23CCCN2C[C@H](F)C3)nc(N2CC3(CCc4sc(N)c(C#N)c43)C2)n1 (stereo partly shown) [Compound 110]
> 8.00

Report pIC50 for CCN(c1nc(OC[C@]2(C(F)F)CCCN2)nc(N2CC3(C2)SCc2sc(N)c(C#N)c23)n1)[C@H](C)c1cccnc1N [Compound 221] please.
> 8.00

Look at this molecule and give its reported pIC50. N#Cc1c(N)sc2c1C1(CN(c3nc(OC[C@@]45CCCN4C[C@H](F)C5)nc(N4C5CNCC4CC(=O)C5)n3)C1)SC2 [Compound 276]
7.00 to 8.00

Fill in the blank: the reported pIC50 of C=C1CN2CCCC2(COc2nc(N3CC4(CCc5sc(N)c(C#N)c54)C3)nc(N3CCC[C@@](C)(O)C3)n2)C1 (stereo partly shown) [Compound 55] is ____.
> 8.00

Form field: reported pIC50 of CC1(C#N)CCCN(c2nc(OCC3(CN4CCOCC4)CC3)nc(N3CC4(CCc5sc(N)c(C#N)c54)C3)n2)C1 (stereo not shown) [Compound 57]
7.00 to 8.00

Param item = C[C@]1(O)C[C@H](O)CN(c2nc(OC[C@@]34CCCN3C[C@H](F)C4)nc(N3CC4(CCc5sc(N)c(C#N)c54)C3)n2)C1 [Compound 75] ; retrieve measured pIC50.
6.00 to 7.00

Any idea what its pIC50 is? The molecule is CCN(c1nc(OC[C@@]23CCCN2C[C@H](F)C3)nc(N2CC3(C2)c2c(sc(N)c2C#N)CN3CC(F)F)n1)[C@H](C)c1cccnc1N [Compound 227]
7.00 to 8.00

Quick one: pIC50 for N#Cc1c(N)sc2c1C1(CN(c3nc(OC[C@@]45CCCN4C[C@H](F)C5)nc(N4C5CNC(=O)C4C5)n3)C1)SC2 (stereo partly shown) [Compound 267] ?
> 8.00

Consider the molecule shown here: CC(c1nsnc1N)N(C)c1nc(OC[C@@]23CCCN2C[C@H](F)C3)nc(N2CC3(C2)SCc2sc(N)c(C#N)c23)n1 (single isomer, unassigned) [Compound 184B] What is its recorded pIC50?
7.00 to 8.00

Consider the molecule shown here: CC(c1ccnn1C)N(C)c1nc(OC[C@@]23CCCN2C[C@H](F)C3)nc(N2CC3(CCc4sc(N)c(C#N)c43)C2)n1 (stereo partly shown) [Compound 125] What is its recorded pIC50?
7.00 to 8.00

# pIC50 lookup, item CCN(c1nc(OCC(C)N(C)C)nc(N2CC3(C2)SCc2sc(N)c(C#N)c23)n1)[C@H](C)c1cccnc1N (stereo partly shown) [Compound 177]
> 8.00

May I ask what pIC50 has been recorded for Cc1ccc(C(C)N(C)c2nc(OC[C@@]34CCCN3C[C@H](F)C4)nc(N3CC4(C3)SCc3sc(N)c(C#N)c34)n2)c(N)n1 (stereo partly shown) [Compound 230] ?
4.70 to 6.00

Returns the measured pIC50 for the input molecule. Input: CCN(c1nc(OC[C@@]23CCCN2C[C@H](F)C3)nc(N2CC3(C2)c2c(sc(N)c2C#N)CN3C)n1)[C@H](C)c1cccnc1N [Compound 226]
> 8.00

---

# Test system: phospho-ERK in SW620 (KRAS-G12V) cells
# procedure summary: pERK In Cell Western (ICW) assay (Method B), SW620
# Format: cell-based
# measurement setup: Homo sapiens, SW-620, 3 h, Table 4
# Description: pERK ICW is a high throughput screening assay to evaluate the cellular potency of mutant KRAS small molecule inhibitors. KRAS mutant cell lines AGS, GP2D (KRAS-G12D) as well as SW620 (KRAS-G12V) were purchased from ATCC and maintained respectively in RPMI/DMEM/RPMI medium supplemented with 10% fetal bovine serum. Cells grown in exponential phase were trypsinized, resuspended in fresh media, and viable cells were counted using a cell counter with Trypan Blue (BioRad TC20). […]
measured endpoint: IC50

Which value of IC50 has been reported for N#Cc1c(N)sc2c1C1(CC2)CN(c2nc(OC[C@@]34CCCN3C[C@H](F)C4)nc(N3CCCOCC3)n2)C1 [Compound 89] in the records?
0.1 to 1 µM

Consider the compound shown here: N#Cc1c(N)sc2c1C1(CC2)CN(c2nc(OC[C@@]34CCCN3C[C@H](F)C4)nc(N(CCO)Cc3cc(F)cnc3N)n2)C1 [Compound 133] What is its recorded IC50?
0.01 to 0.1 µM

Consider the compound shown here: CC(c1cc(Cl)nnc1N)N(C)c1nc(OC[C@@]23CCCN2C[C@H](F)C3)nc(N2CC3(CCc4sc(N)c(C#N)c43)C2)n1 (stereo partly drawn) [Compound 132] What is its recorded IC50?
0.1 to 1 µM

I would be grateful if you could share the reported IC50 for CCN(c1nc(OCC2(CN3C4CCC3COC4)CC2)nc(N2CC3(C2)SCc2sc(N)c(C#N)c23)n1)[C@H](C)c1cccnc1N [Compound 203] .
0.01 to 0.1 µM

Fill blank: measured IC50 of the compound CC(c1nccnc1N)N(C)c1nc(OC[C@@]23CCCN2C[C@H](F)C3)nc(N2CC3(CCc4sc(N)c(C#N)c43)C2)n1 (single isomer, unassigned) [Compound 116A] is ____.
0.01 to 0.1 µM

Reported IC50 for CC(c1cccnc1N)N(C)c1nc(OC[C@@]23CCCN2C[C@H](F)C3)nc(N2CC3(CCc4sc(N)c(C#N)c43)C2)n1 (single isomer, unassigned) [Compound 100A] : what is it?
< 0.01 µM

---

# System: phospho-ERK in SW620 (KRAS-G12V) cells
# procedure summary: pERK In Cell Western (ICW) assay (Method B), SW620
# Type: cell-based
# measurement setup: Homo sapiens, SW-620, 3 h, Table 4
pIC50: −log10 of the molar value.
measured endpoint: pIC50

Data request, read-out pIC50, for C[C@@]1(O)CCCN(c2nc(OC[C@@]34CCCN3C[C@H](F)C4)nc(N3CC4(C3)c3c(sc(N)c3C#N)CC4(F)F)n2)C1
6.00 to 7.00

# query: pIC50 of entry N#Cc1c(N)sc2c1C1(CN(c3nc(OC[C@@]45CCCN4C[C@H](F)C5)nc(N(CCO)C4(C#N)CC4)n3)C1)SC2 (racemic)
7.00 to 8.00

# query: pIC50 of entry CCN(c1nc(OC[C@@]23CCCN2C[C@H](F)C3)nc(N2CC3(C2)SCc2sc(N)c(C#N)c23)n1)[C@H](C)C(N)=O
6.00 to 7.00

Need pIC50, item CN(c1nc(OC[C@@]23CCCN2C[C@H](F)C3)nc(N2CC3(C2)SCc2sc(N)c(C#N)c23)n1)C1CC1
6.00 to 7.00

Entry under review: CC1(O)CCCN(c2nc(OCC34CCCN3C(COc3cc(C(F)(F)F)ncn3)CC4)nc(N3CC4(C3)SCc3sc(N)c(C#N)c34)n2)C1 (single isomer, unassigned) [Compound 256A] . Reported pIC50?
6.00 to 7.00

# query: pIC50 of entry C[C@@]1(O)C[C@H](O)CN(c2nc(OC[C@@]34CCCN3C[C@H](F)C4)nc(N3CC4(CCc5sc(N)c(C#N)c54)C3)n2)C1
≤ 4.70

Bench note: what pIC50 did N#Cc1c(N)sc2c1C1(CC2)CN(c2nc(OC[C@@]34CCCN3C[C@H](F)C4)nc(N3CCCCC(O)C3)n2)C1 (stereo partly shown) show?
6.00 to 7.00

Return reported pIC50; argument: CC(CO)N(c1nc(OC[C@@]23CCCN2C[C@H](F)C3)nc(N2CC3(C2)SCc2sc(N)c(C#N)c23)n1)C1(C#N)CC1 (stereo partly shown)
7.00 to 8.00

I have this molecule here, C#CCN(CC#N)c1nc(OC[C@@]23CCCN2C[C@H](F)C3)nc(N2CC3(C2)SCc2sc(N)c(C#N)c23)n1 , and I need its recorded pIC50.
6.00 to 7.00

Quick one: pIC50 for N#Cc1c(N)sc2c1C1(CC2)CN(c2nc(OC[C@@]34CCCN3C[C@H](F)C4)nc(N(CCO)Cc3ccc[nH]c3=O)n2)C1 ?
4.70 to 6.00

Tell me the measured pIC50 of CN(Cc1cncs1)c1nc(OC[C@@]23CCCN2C[C@H](F)C3)nc(N2CC3(CCc4sc(N)c(C#N)c43)C2)n1 , please.
4.70 to 6.00

Entry under review: CCN(CC#N)c1nc(OC[C@@]23CCCN2C[C@H](F)C3)nc(N2CC3(C2)SCc2sc(N)c(C#N)c23)n1 . Reported pIC50?
7.00 to 8.00

# pIC50 lookup, item CCN(c1nc(OC[C@@]23CCCN2C[C@H](F)C3)nc(N2CC3(C2)SCc2sc(N)c(C#N)c23)n1)C(C)CC#N (stereo partly shown)
6.00 to 7.00

What value of pIC50 has been reported for the following molecule? N#Cc1c(N)sc2c1C1(CC2)CN(c2nc(OC[C@@]34CCCN3C[C@H](F)C4)nc(N3CCCC(O)(CO)C3)n2)C1 (stereo partly shown)
4.70 to 6.00

# query: pIC50 of entry N#CCN(CC(F)F)c1nc(OC[C@@]23CCCN2C[C@H](F)C3)nc(N2CC3(C2)SCc2sc(N)c(C#N)c23)n1
7.00 to 8.00

What value of pIC50 has been reported for the following molecule? C[C@@]1(O)C[C@@H](O)CN(c2nc(OC[C@@]34CCCN3C[C@H](F)C4)nc(N3CC4(CCc5sc(N)c(C#N)c54)C3)n2)C1
≤ 4.70

Consider the molecule N#Cc1c(N)sc2c1C1(CC2)CN(c2nc(OC[C@@]34CCCN3C[C@H](F)C4)nc(N3CCCCC3C#N)n2)C1 (stereo partly shown) and give its measured pIC50.
4.70 to 6.00

I'd like to know its pIC50. The molecule in question is C[C@]1(CO)C[C@@H](O)CN1c1nc(OC[C@@]23CCCN2C[C@H](F)C3)nc(N2CC3(CCc4sc(N)c(C#N)c43)C2)n1
4.70 to 6.00

Look up pIC50: C[C@H](c1cccnc1N)N(CC(F)F)c1nc(OC[C@@H]2CCCN2C)nc(N2CC3(C2)SCc2sc(N)c(C#N)c23)n1
> 8.00

Entry under review: C[C@@]1(O)CCCN(c2nc(OC[C@@]34CCCN3C[C@H](F)C4)nc(N3CC4(C3)c3c(sc(N)c3C#N)CC4F)n2)C1 (stereo partly shown) . Reported pIC50?
6.00 to 7.00

Look up pIC50 for this molecule: CC(C#N)N(CC(F)F)c1nc(OC[C@@]23CCCN2C[C@H](F)C3)nc(N2CC3(C2)SCc2sc(N)c(C#N)c23)n1 (stereo partly shown)
7.00 to 8.00

# query: pIC50 of entry CCN(c1nc(OCC2(COC)CCCN2)nc(N2CC3(C2)SCc2sc(N)c(C#N)c23)n1)[C@H](C)c1cccnc1N (stereo partly shown)
7.00 to 8.00

Fill in the blank: the reported pIC50 of CN(Cc1nsnc1N)c1nc(OC[C@@]23CCCN2C[C@H](F)C3)nc(N2CC3(CCc4sc(N)c(C#N)c43)C2)n1 is ____.
7.00 to 8.00

Entry under review: N#Cc1c(N)sc2c1C1(CC2)CN(c2nc(OC[C@@]34CCCN3C[C@H](F)C4)nc(N3CCCCC(C#N)C3)n2)C1 (stereo partly shown) . Reported pIC50?
6.00 to 7.00

Name the recorded pIC50 for CC1(O)CCCCN(c2nc(OC[C@@]34CCCN3C[C@H](F)C4)nc(N3CC4(CCc5sc(N)c(C#N)c54)C3)n2)C1 (stereo partly shown) .
6.00 to 7.00

Values compiled from patent US12421254B2.
